# System: Cryptococcus neoformans
# Test: Broth microdilution antifungal susceptibility, NCCLS M38-A
# Condition summary: strain 11239; 50% growth inhibition; range = minimum and maximum of multiple assays
The following molecules are listed with their measured MIC C. neoformans 11239 values.

Solved entries (count: 3):
Fill in the blank: the reported MIC C. neoformans 11239 of CC[C@H]1O[C@@H](/C(C)=C/[C@H](C)/C=C/[C@H]2[C@@H](C)[C@@H]2/C=C/[C@@H]2O[C@H](CC(=O)O)C[C@H](N(C)Cc3ncc[nH]3)[C@H]2O)CC=C1C is ____. 1 µg/mL

Request the reported MIC C. neoformans 11239 associated with CC[C@H]1O[C@@H](/C(C)=C/[C@H](C)/C=C/[C@H]2[C@@H](C)[C@@H]2/C=C/[C@@H]2O[C@H](CC(=O)O)C[C@H](NCCO)[C@H]2O)CC=C1C 1 µg/mL

Which MIC C. neoformans 11239 value is on record for CCCCN(C)[C@H]1C[C@@H](CC(=O)O)O[C@@H](/C=C/[C@H]2[C@H](C)[C@@H]2/C=C/[C@@H](C)/C=C(\C)[C@H]2CC=C(C)[C@@H](CC)O2)[C@@H]1O ? 2 µg/mL

API: the following record is the query input.
Recorded MIC C. neoformans 11239 of C[C@@H]1[C@H](O)[C@@H](C)/C=C/C=C/C=C/C=C/C=C/C=C/C=C/[C@H](O[C@@H]2O[C@H](C)[C@@H](O)[C@H](N)[C@@H]2O)C[C@@H]2O[C@](O)(C[C@@H](O)C[C@@H](O)[C@H](O)CC[C@@H](O)C[C@@H](O)CC(=O)O[C@H]1C)C[C@H](O)[C@H]2C(=O)O [Amphotericin B, reference compound] , please. 0.5 to 1 µg/mL

###

# System: Cryptococcus neoformans
# Test: Broth microdilution antifungal susceptibility, NCCLS M38-A
# Condition summary: strain 97-14; 50% growth inhibition; range = minimum and maximum of multiple assays
# key: entry, value: MIC C. neoformans 97-14
Express it in µg/mL; write the number only.

Below, 2 molecules whose answers are already recorded.
# query: MIC C. neoformans 97-14 | item CC[C@H]1O[C@@H](/C(C)=C/[C@H](C)/C=C/[C@H]2[C@@H](C)[C@@H]2/C=C/[C@@H]2O[C@H](CC(=O)O)C[C@H](N(C)Cc3ncc[nH]3)[C@H]2O)CC=C1C [I-y] | system: Cryptococcus neoformans 0.5

Record lookup: for Cryptococcus neoformans, what MIC C. neoformans 97-14 belongs to CC[C@H]1O[C@@H](/C(C)=C/[C@H](C)/C=C/[C@H]2[C@@H](C)[C@@H]2/C=C/[C@@H]2O[C@H](CC(=O)O)C[C@H](N(C)CCO)[C@H]2O)CC=C1C [I-n] ? 0.25

Turning to the following molecule.
So what MIC C. neoformans 97-14 did CC[C@H]1O[C@@H](/C(C)=C/[C@H](C)/C=C/[C@H]2[C@@H](C)[C@@H]2/C=C/[C@@H]2O[C@H](CC(=O)O)C[C@H](N(C)C(C)C)[C@H]2O)CC=C1C [I-v] get with Cryptococcus neoformans? 0.5

###

# System: Cryptococcus neoformans
# Test: Broth microdilution antifungal susceptibility, NCCLS M38-A
# Condition summary: strain 11239; 50% growth inhibition; range = minimum and maximum of multiple assays
Documented MIC C. neoformans 11239 across a set of compounds
Number in µg/mL, nothing else.

Which MIC C. neoformans 11239 value is on record for CC[C@H]1O[C@@H](/C(C)=C/[C@H](C)/C=C/[C@H]2[C@@H](C)[C@@H]2/C=C/[C@@H]2O[C@H](CC(=O)O)C[C@H](N(C)C3CCCC3)[C@H]2O)CC=C1C ? 2

Which MIC C. neoformans 11239 is reported for this compound? CC[C@H]1O[C@@H](/C(C)=C/[C@H](C)/C=C/[C@H]2[C@@H](C)[C@@H]2/C=C/[C@@H]2O[C@H](CC(=O)O)C[C@H](N(C)C(C)C)[C@H]2O)CC=C1C 0.25

Given the entry CC[C@H]1O[C@@H](/C(C)=C/[C@H](C)/C=C/[C@H]2[C@@H](C)[C@@H]2/C=C/[C@@H]2O[C@H](CCO)C[C@H](NC)[C@H]2O)CC=C1C , report its measured MIC C. neoformans 11239. 2

Now for another entry.
Dear colleague, I am looking for the recorded MIC C. neoformans 11239 of the following compound: CC[C@H]1O[C@@H](/C(C)=C/[C@H](C)/C=C/[C@H]2[C@@H](C)[C@@H]2/C=C/[C@@H]2O[C@H](CC(=O)O)C[C@H](NC3CCC3)[C@H]2O)CC=C1C 2

###

# Test system: Cryptococcus neoformans
# Test: Broth microdilution antifungal susceptibility, NCCLS M38-A
# Condition summary: strain 97-14; 50% growth inhibition; range = minimum and maximum of multiple assays
Parameter measured: MIC C. neoformans 97-14 (mg/L)
Express it in mg/L; write the number only.

Below, 3 compounds whose answers are already recorded.
Look at this compound and give its reported MIC C. neoformans 97-14. CC[C@H]1O[C@@H](/C(C)=C/[C@H](C)/C=C/[C@H]2[C@@H](C)[C@@H]2/C=C/[C@@H]2O[C@H](CCO)C[C@H](NC)[C@H]2O)CC=C1C 2

Give its MIC C. neoformans 97-14 value. Item: CC[C@H]1O[C@@H](/C(C)=C/[C@H](C)/C=C/[C@H]2[C@@H](C)[C@@H]2/C=C/[C@@H]2O[C@H](CC(=O)O)C[C@H](N(C)Cc3cccnc3)[C@H]2O)CC=C1C 1

Would you kindly share the measured MIC C. neoformans 97-14 for CC[C@H]1O[C@@H](/C(C)=C/[C@H](C)/C=C/[C@H]2[C@@H](C)[C@@H]2/C=C/[C@@H]2O[C@H](CC(=O)O)C[C@H](N(C)CC3CC3)[C@H]2O)CC=C1C ? 2

***
Consider the compound shown here: CC[C@H]1O[C@@H](/C(C)=C/[C@H](C)/C=C/[C@H]2[C@@H](C)[C@@H]2/C=C/[C@@H]2O[C@H](CC(=O)O)C[C@H](NCCO)[C@H]2O)CC=C1C What is its recorded MIC C. neoformans 97-14? 0.5

Returns the measured MIC C. neoformans 97-14 for the input compound. Input: CC[C@H]1O[C@@H](/C(C)=C/[C@H](C)/C=C/[C@H]2[C@@H](C)[C@@H]2/C=C/[C@@H]2O[C@H](CC(N)=O)C[C@H](N(C)C)[C@H]2O)CC=C1C [I-hh, (5S,6R)-5-(dimethylamino)polyangiamide] 1

###

# System: Cryptococcus neoformans
# Test: Broth microdilution antifungal susceptibility, NCCLS M38-A
# Condition summary: strain 11239; 50% growth inhibition; range = minimum and maximum of multiple assays
Here the recorded MIC C. neoformans 11239 is given for each entry.
Your answer is read as µg/mL, so omit the unit and give the number.

# count of solved cases: 3
Query: MIC C. neoformans 11239; subject: CCCN(C)[C@H]1C[C@@H](CC(=O)O)O[C@@H](/C=C/[C@H]2[C@H](C)[C@@H]2/C=C/[C@@H](C)/C=C(\C)[C@H]2CC=C(C)[C@@H](CC)O2)[C@@H]1O 1

Suppose we examine the molecule CC[C@H]1O[C@@H](/C(C)=C/[C@H](C)/C=C/[C@H]2[C@@H](C)[C@@H]2/C=C/[C@@H]2O[C@H](CC(=O)O)C[C@H](N(C)CC3CC3)[C@H]2O)CC=C1C ; what MIC C. neoformans 11239 value has been reported? 2

For CCOC(=O)O[C@H]1[C@H](/C=C/[C@H]2[C@H](C)[C@@H]2/C=C/[C@@H](C)/C=C(\C)[C@H]2CC=C(C)[C@@H](CC)O2)O[C@H](CC(N)=O)C[C@@H]1N(C)C , what is its reported MIC C. neoformans 11239? 0.25

Continue with the next molecule.
If you can, please state the reported MIC C. neoformans 11239 value of CCN[C@H]1C[C@@H](CC(=O)O)O[C@@H](/C=C/[C@H]2[C@H](C)[C@@H]2/C=C/[C@@H](C)/C=C(\C)[C@H]2CC=C(C)[C@@H](CC)O2)[C@@H]1O . 0.25

###

# Tested on: Fusarium solani
# Test: Broth microdilution antifungal susceptibility, NCCLS M38-A
# Type: cell-based
# Condition summary: strain 96-1; 50% growth inhibition; range = minimum and maximum of multiple assays
Parameter measured: MIC F. solani 96-1

Example cases with answers are listed next.
What does the record list as MIC F. solani 96-1 for CC[C@H]1O[C@@H](/C(C)=C/[C@H](C)/C=C/[C@H]2[C@@H](C)[C@@H]2/C=C/[C@@H]2O[C@H](CC(N)=O)C[C@H](N(C)C)[C@H]2O)CC=C1C [I-hh, (5S,6R)-5-(dimethylamino)polyangiamide] ? 16 µg/mL

Suppose we examine the molecule C[C@@H]1[C@H](O)[C@@H](C)/C=C/C=C/C=C/C=C/C=C/C=C/C=C/[C@H](O[C@@H]2O[C@H](C)[C@@H](O)[C@H](N)[C@@H]2O)C[C@@H]2O[C@](O)(C[C@@H](O)C[C@@H](O)[C@H](O)CC[C@@H](O)C[C@@H](O)CC(=O)O[C@H]1C)C[C@H](O)[C@H]2C(=O)O [Amphotericin B, reference compound] ; what MIC F. solani 96-1 value has been reported? 1 to 2 µg/mL

Given the molecule CC[C@H]1O[C@@H](/C(C)=C/[C@H](C)/C=C/[C@H]2[C@@H](C)[C@@H]2/C=C/[C@@H]2O[C@H](CC(=O)O)C[C@H](N(C)CCO)[C@H]2O)CC=C1C , what is its reported MIC F. solani 96-1? >16 µg/mL

Which value of MIC F. solani 96-1 has been reported for CC[C@H]1O[C@@H](/C(C)=C/[C@H](C)/C=C/[C@H]2[C@@H](C)[C@@H]2/C=C/[C@@H]2O[C@H](CC(=O)O)C[C@H](N(C)Cc3cccnc3)[C@H]2O)CC=C1C in the records? >16 µg/mL

Requested field: MIC F. solani 96-1. Item: CC[C@H]1O[C@@H](/C(C)=C/[C@H](C)/C=C/[C@H]2[C@@H](C)[C@@H]2/C=C/[C@@H]2O[C@H](CCO)C[C@H](N(C)C)[C@H]2O)CC=C1C 8 to 16 µg/mL

***
May I ask what MIC F. solani 96-1 has been recorded for CC[C@H]1O[C@@H](/C(C)=C/[C@H](C)/C=C/[C@H]2[C@@H](C)[C@@H]2/C=C/[C@@H]2O[C@H](CC(=O)O)C[C@H](N(C)C(C)C)[C@H]2O)CC=C1C ? >16 µg/mL

Requested field: MIC F. solani 96-1. Item: CC[C@H]1O[C@@H](/C(C)=C/[C@H](C)/C=C/[C@H]2[C@@H](C)[C@@H]2/C=C/[C@@H]2O[C@H](CC(=O)O)C[C@H](N(CC)CC)[C@H]2O)CC=C1C >16 µg/mL
